- Target Or Test System: T1, human IL-2Rγ expressed on cells (NK-92, Jurkat) (human) (UniProt P31785)
- T1 sequence (looked up): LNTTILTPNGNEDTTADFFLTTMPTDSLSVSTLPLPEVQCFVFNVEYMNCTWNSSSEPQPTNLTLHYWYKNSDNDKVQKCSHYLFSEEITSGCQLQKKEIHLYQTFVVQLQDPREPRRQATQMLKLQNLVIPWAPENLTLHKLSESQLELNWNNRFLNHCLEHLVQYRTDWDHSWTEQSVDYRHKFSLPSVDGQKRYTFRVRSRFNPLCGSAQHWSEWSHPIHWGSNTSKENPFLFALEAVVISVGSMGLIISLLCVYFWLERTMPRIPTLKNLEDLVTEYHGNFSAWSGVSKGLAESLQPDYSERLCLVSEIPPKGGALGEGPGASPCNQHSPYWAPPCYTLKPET
- Assay Details: flow cytometry on Jurkat cells (endogenous human IL-2Rg), antibody 10 ug/ml
This listing pairs binders with measured Raw MFI.
Expressed in MFI, but write only the number.

binder="H4H12899P (antibody, human IgG4 S228P, kappa, V domains shown) VH: QVQLVESGGDLVKPGGSLRLSCATSGFTFSDFYMTWIRQAPGKGLEWISYISNSGSIVKYADSVKGRFTISRDNAKNSLYLQMNSLRAEDTAIYYCARFYGDRWGQGTLVTVSS VL: DIQLTQSPSFLSASVGDRVTITCWASQGISTFLAWYQQKPGKAPKLLIYAASTLQSGVPSRFSGSGSGTDFTLTISSLQPEDFATYHCQQLNNYPWTFGQGTKVEIKR" measured_number=114
binder="H4H12858P (antibody, human IgG4 S228P, kappa, V domains shown) VH: EVQLVESGGDLVQPGGSLRLSCTASGFIFRNYAMNWVRQAPGKGLEWLSGILGSNDNTYYVDSVKGRFTISRDNSRNTLYLQMNSLRAEDSAVYYCAKGDAGGFDYWGQGTLVTVSS VL: DVVMTQSPLSLPVILGQPASISCRSSQSLVSSDGNTYLNWFQQRPGQSPRRLIYKVSNRDSGVPDRFSGSGSGTDFTLKISRVEAEDVGAYYCMQGSYWPPTFGQGTKLEIKR" measured_number=99

Please find the next binder below.
// lookup Raw MFI for H4H12857P (antibody, human IgG4 S228P, kappa, V domains shown) VH: EVQLVESGGGVVRPGGSLRLSCAASGFTFDDFDMSWVRQGPGKGLEWVSGINWHGSSTGYADSVKGRFTISRDNAKNSLYLQMSSLRAEDTALYHCVRGGTIVGATTPLDYWGQGTLVTVSS VL: DIQMTQSPSSLSASVGDRVTMTCRASRTISSYLSWYQQKSGKVPNLLIFGASSLQSGVPSRFSASGSGTDFTLIISSLQPEDFATYYCQQSYSSPLTFGGGTKVEIKR
103

Sourced from patent US20230279131A1
